Data origin, for the record: patent US7265103B2

# target_system: hα2A receptor (Homo sapiens)
# Construct: expressed in transfected cells; host or cells: CHO cells
# Sequence (P08913 1-465): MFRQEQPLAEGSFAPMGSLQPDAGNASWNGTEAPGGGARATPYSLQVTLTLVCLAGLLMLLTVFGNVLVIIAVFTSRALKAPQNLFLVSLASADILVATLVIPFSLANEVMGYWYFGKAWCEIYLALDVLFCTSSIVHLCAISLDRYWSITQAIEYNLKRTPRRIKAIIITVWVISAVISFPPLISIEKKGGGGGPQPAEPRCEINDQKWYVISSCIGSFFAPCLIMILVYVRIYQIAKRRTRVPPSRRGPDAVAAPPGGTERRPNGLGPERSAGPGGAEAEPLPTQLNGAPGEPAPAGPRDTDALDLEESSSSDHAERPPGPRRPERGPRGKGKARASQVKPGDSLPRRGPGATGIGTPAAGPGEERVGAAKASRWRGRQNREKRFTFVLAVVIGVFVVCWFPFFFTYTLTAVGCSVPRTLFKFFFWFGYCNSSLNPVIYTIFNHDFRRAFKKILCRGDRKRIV
# protocol_notes: Radioligand binding experiment for α2A-adrenergic receptor ([3H]-raulwolscine)
# condition_label: CHO cell membranes with human α2A receptor, [3H]raulwolscine 1 nM; read-out: pIC50 α2A (converted)
readout_kind: IC50 (nM)

# example entries with known answers
| molecule | measured_number |
| --- | --- |
| CC(=Cc1ccccc1)CN1CCN(CC2ON=C3c4ccc(NC(=O)C(C)(C)C)cc4OCC32)CC1 (stereo not shown) | 3.16 |
| CNc1cc2c(cc1OC)C1=NOC(CN3CCN(CC(C)=Cc4ccccc4)CC3)C1CO2 (stereo not shown) | 5.01 |
| C/C(=C\c1ccccc1)CN1CCN(CC2ON=C3c4ccc(N)cc4OCC32)CC1 (stereo not shown) | 2.51 |
| COc1cc2c(cc1NCCN1CCCC1)OCC1C2=NOC1CN1CCN(CC(C)=Cc2cccc(F)c2)CC1 (stereo not shown) | 15.8 |
| CC(=Cc1ccc(F)cc1)CN1CCN(CC2ON=C3c4ccc(N(C)CCNC5CCC5)cc4OCC32)CC1 (stereo not shown) | 25.1 |

a = CC(=O)N1CCOc2cc3c(cc21)OCC1C3=NOC1CN1CCN(C/C(C)=C/c2ccccc2)CC1 (stereo not shown)
b = CCOC(=O)C1CCN(c2ccc3c(c2)OCC2C3=NOC2CN2CCN(CC(C)=Cc3ccc(F)cc3)CC2)CC1 (stereo not shown)
Problem: Rank a against b by their IC50 values and give the higher one. Pick one and reply with its label.
Result: b
(b: 100 nM, a: 2 nM)

A = CC(=Cc1ccccc1)CN1CCN(CC2ON=C3c4ccc(Nc5ccccc5C)cc4OCC32)CC1 (stereo not shown)
B = COc1cc2c(cc1NC(C)=O)OCC1C2=NOC1CN1CCN(C/C(C)=C/c2ccccc2)CC1 (stereo not shown)
Problem: Rank A against B by their IC50 values and give the higher one. Pick one and reply with its label.
Result: A
(A: 20 nM, B: 3.98 nM)

A = COc1cc2c(cc1NCCN(C)C)OCC1C2=NOC1CN1CCN(C/C(C)=C/c2ccccc2)CC1 (stereo not shown)
B = CCC(C)C(=O)Nc1cc2c(cc1OC)C1=NOC(CN3CCN(CC(C)=Cc4ccc(F)cc4)CC3)C1CO2 (stereo not shown)
C = Clc1ccc(CN2CCN(CC3ON=C4c5cc6c(cc5OCC43)NCCO6)CC2)cc1 (stereo not shown)
Problem: Your job: order these 3 records by IC50, ascending. Give the order by naming the labels one after another as requested.
Result: A, B, C
(A: 5.01 nM, B: 25.1 nM, C: 316 nM)
